Recorded values, source the supplement of paper PMC10065799.

The following sequences are listed with their measured phosphorylation enrichment values.
# Tested on: AncSZ
# EXPERIMENT: phosphorylation enrichment, bacterial display (enrichment ratio); higher = better substrate or ligand; peptides without Tyr show the background

| SEQUENCE_CHAIN | phosphorylation enrichment |
| --- | --- |
| NTCNRYCRDEI [ITGB3_Y660] | 0.794 |
| GSLEDYVRETN [GIMAP6_Y176] | 1 |
| WRVIGYHVVVW [ATP13A2_Y50] | 1.21 |
| RCFVFYFSFLL [PTEN_Y177_R173C_YF] | 0.59 |
| ISHVAYCVLGK [TRRAP_Y892_R893C] | 1.3 |
| IQTDGDRAPEA [UHMK1_Y197_Y197D] | 1.08 |
| VPLATYMQIFK [RPL21_Y30_R32Q_YF] | 0.745 |
| APSGNYVACGG [GNB1_Y111] | 1.13 |
| HILQLYRCREE [ALPK3_Y342_T338I] | 0.945 |
| THPFPYLSLEI [MLH1_Y293_L292P] | 0.909 |
| YEREQYADRTR [RBM4_Y355_A359T] | 0.897 |
| YDKEYYSVHNK [MET_Y1235] | 1.36 |
| IKEFKYGIEEH [GJA1_Y137_K134E] | 0.836 |
| QEGPEYWDGET [HLA-A_Y83_Q86G] | 1.73 |
| NSFKFYMSDDI [ATRX_Y204_C200S_YF] | 1.14 |
| YPKARYRWLVL [APTX_Y214_H215R] | 0.786 |
| DRLASYLDKVP [KRT14_Y129_R134P] | 0.802 |
| WNGDKYAATTT [TRIM39_Y439] | 0.717 |
| SVETPYGSVTF [NDRG2_Y47] | 0.82 |
| LECEWYKNGVK [TTN_Y2112_P2107L] | 2.15 |

====

# System: c-Abl (mouse)
# EXPERIMENT: phosphorylation enrichment, bacterial display (enrichment ratio); higher = better substrate or ligand; peptides without Tyr show the background
Respond with Fulfilled for phosphorylation enrichment values of 0.8 and above, Not fulfilled for values below.

| SEQUENCE_CHAIN | ASSIGNED_CATEGORY |
| --- | --- |
| AALKLYHVSDS [VIL1_Y256] | Not fulfilled |
| DGKFSYLKVGH [GRM3_Y480_G475D_YF] | Not fulfilled |
| QKFMAYPSQGG [HLCS_Y236_L237P] | Fulfilled |
| HFMELYDLNRD [BBS2_Y648_R643H_YF] | Fulfilled |
| KFVKMCDNHQL [MYO9A_Y203_Y203C_YF] | Not fulfilled |
| LEAVSYSSRFA [RNLS_Y190_YF] | Not fulfilled |
| DVCKNYTEAKD [ALB_Y343_A344T] | Not fulfilled |
| SVTCTYSPALT [TP53_Y126_N131T] | Fulfilled |
| PTTKSYFPHFD [HBA1_Y43_T42S] | Not fulfilled |
| GILDVYIFLGP [GAA_Y340] | Fulfilled |
| AKKVFYVIETR [SHH_Y253] | Not fulfilled |
| HHIDYYKKTTN [FGFR1_Y654] | Not fulfilled |
| AKKVFYMIETR [SHH_Y253_V254M] | Not fulfilled |
| LHVKMYNFLRS [ADGRG7_Y760_R756H] | Fulfilled |
| LDPMVYMNDKS [PTK2B_Y834] | Fulfilled |
| SIKDKYVTVLY [KCNH2_Y611_A614V] | Not fulfilled |
| RDLTHYLMKIL [ACTG1_Y188_D187H] | Not fulfilled |
| TKLKDYFIFNK [CCDC42_Y149_A144T_YF] | Not fulfilled |
| KNKLNYTLPQD [NRAP_Y523] | Not fulfilled |
| NPQKSYFICLY [WAS_Y83_R86C] | Fulfilled |

====

# ASSAY_SYSTEM: Grb2 SH2 (UniProt P62993)
# Sequence (P62993 whole entry, looked up): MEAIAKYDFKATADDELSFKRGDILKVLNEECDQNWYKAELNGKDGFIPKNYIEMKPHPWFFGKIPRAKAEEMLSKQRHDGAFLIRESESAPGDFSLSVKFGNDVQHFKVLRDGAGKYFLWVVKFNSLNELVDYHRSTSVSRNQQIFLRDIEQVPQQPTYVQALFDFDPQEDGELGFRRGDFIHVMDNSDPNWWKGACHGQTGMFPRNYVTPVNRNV
# EXPERIMENT: SH2 binding enrichment of the phosphorylated peptide, bacterial display (enrichment ratio); higher = better substrate or ligand; peptides without Tyr show the background
The following sequences are listed with their measured SH2 binding enrichment values.

| SEQUENCE_CHAIN | SH2 binding enrichment |
| --- | --- |
| GASWRYRSGVS [NEU1_Y242_G243R] | 0.82 |
| FSGDFYRIQGR [DDR2_Y741_YF] | 0.786 |
| SSEYHYVGGFY [CTSC_Y347] | 0.998 |
| EQLRAYLEGEC [HLA-C_Y183_T187E] | 0.783 |
| FSSLGYPLPEG [ZSWIM4_Y87_P89L_YF] | 1.02 |
| PMWHPYKADVT [TP53TG5_Y255_V257A] | 0.791 |
| VAMELYVFGGV [GAN_Y471] | 0.808 |
| GSLEDYVRETN [GIMAP6_Y176] | 0.785 |
| IENKLYGTSDP [RET_Y1062_M1064T] | 1.02 |
| ELETLYKKAVK [CC2D2A_Y381] | 0.809 |
| VDTRAYFTSAT [MT-CO1_Y304] | 1.01 |
| SDVCMYRKNTF [SYNE2_Y570_I574T_YF] | 0.787 |

====

# ASSAY_SYSTEM: SHP2-C SH2
# EXPERIMENT: SH2 binding enrichment of the phosphorylated peptide, bacterial display (enrichment ratio); higher = better substrate or ligand; peptides without Tyr show the background
The following sequences are listed with their measured SH2 binding enrichment values.

| SEQUENCE_CHAIN | ASSAY_SYSTEM | SH2 binding enrichment |
| --- | --- | --- |
| VAMELYVFGGV [GAN_Y471] | SHP2-C SH2 | 0.685 |
| FADIAYNYRHA [PAH_Y166_G171A] | SHP2-C SH2 | 0.681 |
| YAANYYKLLGN [ROR2_Y646_D644N] | SHP2-C SH2 | 0.685 |

====

# ASSAY_SYSTEM: Grb2 SH2 (UniProt P62993)
# EXPERIMENT: SH2 binding enrichment of the phosphorylated peptide, bacterial display (enrichment ratio); higher = better substrate or ligand; peptides without Tyr show the background
Could you please classify the records by SH2 binding enrichment using these ranges: lower bin (below 0.8), middle bin (0.8 to below 1), upper bin (1 or more)

| SEQUENCE_CHAIN | ASSIGNED_CATEGORY |
| --- | --- |
| FLAATYPTVGQ [NF1_Y2508_YF] | middle bin |
| ICANKYMVKSC [RPL10_Y75] | upper bin |
| NACGLYYKLHN [GATA2_Y376] | lower bin |
| PTTKTYLPHFD [HBA1_Y43_F44L] | middle bin |
| PSQRCYVYYYS [PTEN_Y174_R173C] | middle bin |
| FGLQAYTKVKT [ALDH2_Y502_E504K_YF] | lower bin |
| EKLQKYFRKNP [EHHADH_Y682_Q685K_YF] | middle bin |
| TKFRNYLIPKG [CYP2C8_Y379] | upper bin |
| HVIKLFGACSQ [RET_Y791_Y791F] | middle bin |
| RLLRGYDQSAY [HLA-C_Y137] | middle bin |
| KGERGYPGTLG [COL4A1_Y348_P352L] | middle bin |
| STDDGYIDLQF [TMEM230_Y29] | middle bin |
| PHMQTYEVDHN [SDHB_Y61_L65H] | upper bin |
| GSIQQYIFKQE [PRG4_Y1271_YF] | lower bin |
| FPHVISARLWR [SMAD4_Y95_Y95S] | upper bin |
| QGCGIYKDFFR [PLA2G2D_Y82_S80G_YF] | upper bin |

====

# ASSAY_SYSTEM: SHP2-C SH2
# EXPERIMENT: SH2 binding enrichment of the phosphorylated peptide, bacterial display (enrichment ratio); higher = better substrate or ligand; peptides without Tyr show the background
Respond with rule met for SH2 binding enrichment values of 0.7 and above, rule not met for values below.

| SEQUENCE_CHAIN | ASSIGNED_CATEGORY |
| --- | --- |
| SILAVYSKDNF [PANK2_Y400_YF] | rule met |
| FLRTGYSVPFG [TGM1_Y370_YF] | rule met |
| TQNGVYSAANF [DDX5_Y535_YF] | rule not met |
| PDSVDYPKKGF [CTSK_Y121_R122P_YF] | rule not met |
| IIWDSYTTNKM [GNB4_Y85] | rule met |
| WRVIGYHVVVW [ATP13A2_Y50] | rule met |
| NPIGLYSAETL [LDB3_Y202] | rule met |
| VNNAVYGIDAM [EIF3J_Y143] | rule met |
| DTKAFYPEEIS [HSPA1A_Y115_E110D] | rule not met |
| ADNQRYAFMPL [TMEM87B_Y460_N456D] | rule not met |
| QGQHWYSSSDT [CASP10_Y9_K14T] | rule met |
| FNNPAYYVLEG [INPPL1_Y986] | rule met |
| GVPLGYPIKAS [ELN_Y206_P211S] | rule not met |
| GPCKAYELSQR [SETX_Y1297_R1294C] | rule met |
| HNGVSYFINLC [IGF2R_Y2024_YF] | rule not met |
| PSDSGYSYETI [MAP1B_Y1921] | rule not met |
| GPQSLYNGLVA [UCP2_Y79_R76Q] | rule not met |
| KGERGYPGTLG [COL4A1_Y348_P352L] | rule not met |
| KKMEVYQSIAD [MYBPC3_Y548_L545M] | rule not met |
